# binding signal per record follows
Target: T1, RBFOX1 RRM RbFoxmut (Fox-RRM*) (Homo sapiens, UniProt Q9NWB1 109-208, R118D;E147R;N151S;E152T)
T1 sequence: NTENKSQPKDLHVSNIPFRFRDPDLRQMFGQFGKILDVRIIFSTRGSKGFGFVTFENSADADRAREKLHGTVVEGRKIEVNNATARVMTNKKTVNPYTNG
Test: EMSA; HiTS-Eq, 1 nM pool, 10 min; buffer printed only for the single-RNA assays: 10 mM Tris pH 7.5, 150 mM NaCl, 3.4 mM EDTA, 0.001% NP-40, 30 C
Conditions: tags: His6 N-terminal (pET28a); label: 5' 32P
In all, about 16,000 sequences were measured (“ka relative to ugcaugu”: median about 0.096, highest 2% from about 0.35 on). What follows is part of a selection rich in the highest values, with near analogues and random picks from the rest.

Known results for binders:
binder | binding signal
GGUGCCG (DNA:RNA) RNA: GGGAGACCGGAAUUCAGAUUGUCCGGUGCCGUUAAAUCCCGUCGUAGCCACCA DNA 1: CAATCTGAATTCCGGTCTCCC DNA 2: TGGTGGCTACGACGGGATT | 0.128 KA relative to UGCAUGU
CUCACAU (DNA:RNA) RNA: GGGAGACCGGAAUUCAGAUUGUCCCUCACAUUUAAAUCCCGUCGUAGCCACCA DNA 1: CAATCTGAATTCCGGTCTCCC DNA 2: TGGTGGCTACGACGGGATT | 0.0911 KA relative to UGCAUGU
UGCACCC (DNA:RNA) RNA: GGGAGACCGGAAUUCAGAUUGUCCUGCACCCUUAAAUCCCGUCGUAGCCACCA DNA 1: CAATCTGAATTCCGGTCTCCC DNA 2: TGGTGGCTACGACGGGATT | 0.127 KA relative to UGCAUGU
UGCCAGG (DNA:RNA) RNA: GGGAGACCGGAAUUCAGAUUGUCCUGCCAGGUUAAAUCCCGUCGUAGCCACCA DNA 1: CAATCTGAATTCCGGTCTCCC DNA 2: TGGTGGCTACGACGGGATT | 0.0858 KA relative to UGCAUGU
UGCGUCC (DNA:RNA) RNA: GGGAGACCGGAAUUCAGAUUGUCCUGCGUCCUUAAAUCCCGUCGUAGCCACCA DNA 1: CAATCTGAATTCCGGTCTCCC DNA 2: TGGTGGCTACGACGGGATT | 0.091 KA relative to UGCAUGU
CGUUUCG (DNA:RNA) RNA: GGGAGACCGGAAUUCAGAUUGUCCCGUUUCGUUAAAUCCCGUCGUAGCCACCA DNA 1: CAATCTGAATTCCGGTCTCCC DNA 2: TGGTGGCTACGACGGGATT | 0.17 KA relative to UGCAUGU
UGCAUCG (DNA:RNA) RNA: GGGAGACCGGAAUUCAGAUUGUCCUGCAUCGUUAAAUCCCGUCGUAGCCACCA DNA 1: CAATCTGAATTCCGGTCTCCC DNA 2: TGGTGGCTACGACGGGATT | 0.922 KA relative to UGCAUGU
CUACUCU (DNA:RNA) RNA: GGGAGACCGGAAUUCAGAUUGUCCCUACUCUUUAAAUCCCGUCGUAGCCACCA DNA 1: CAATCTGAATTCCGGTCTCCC DNA 2: TGGTGGCTACGACGGGATT | 0.0641 KA relative to UGCAUGU

Record request: binding signal value, item CCAAUCA (DNA:RNA) RNA: GGGAGACCGGAAUUCAGAUUGUCCCCAAUCAUUAAAUCCCGUCGUAGCCACCA DNA 1: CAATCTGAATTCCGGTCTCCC DNA 2: TGGTGGCTACGACGGGATT
0.0737 KA relative to UGCAUGU

# credit: paper PMC9911399
